target: Beta-adrenergic receptor kinase 1 (Homo sapiens) (UniProt P25098); experiment: GRK2 binders displacing RNA aptamer, biochemical, validation, human GRK2, bead flow cytometry (AID 488806); conditions: bead-bound GRK2, FAM-aptamer displacement, at 10 µM
Sequence (P25098 whole entry, looked up): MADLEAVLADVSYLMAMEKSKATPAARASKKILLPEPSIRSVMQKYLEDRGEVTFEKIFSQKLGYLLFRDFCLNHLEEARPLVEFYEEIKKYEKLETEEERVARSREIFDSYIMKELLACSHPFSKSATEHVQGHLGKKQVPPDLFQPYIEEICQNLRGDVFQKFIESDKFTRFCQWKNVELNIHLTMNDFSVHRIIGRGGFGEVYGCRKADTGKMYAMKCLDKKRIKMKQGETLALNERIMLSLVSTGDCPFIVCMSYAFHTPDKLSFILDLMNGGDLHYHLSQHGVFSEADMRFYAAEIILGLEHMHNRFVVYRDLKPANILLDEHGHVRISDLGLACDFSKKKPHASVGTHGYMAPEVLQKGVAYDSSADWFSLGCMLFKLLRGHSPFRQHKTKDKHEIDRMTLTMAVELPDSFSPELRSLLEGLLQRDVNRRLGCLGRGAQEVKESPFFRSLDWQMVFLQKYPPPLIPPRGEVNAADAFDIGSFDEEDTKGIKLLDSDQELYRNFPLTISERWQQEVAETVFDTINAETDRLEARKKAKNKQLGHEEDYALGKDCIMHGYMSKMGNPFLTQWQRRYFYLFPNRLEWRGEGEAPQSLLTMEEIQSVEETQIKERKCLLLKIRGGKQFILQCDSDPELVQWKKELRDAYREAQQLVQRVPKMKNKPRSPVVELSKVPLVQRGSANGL
Active and inactive are the calls of the source.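 How the source made its calls: active means aptamer binding inhibition above 30%, about 3 SD of noise from non-fluorescent compounds; inactive means inhibition at or below 30%.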
Please reply with one of these outcomes: active, inactive

compound=Cc1ccccc1NC(=O)c1c(C)cc(=O)oc1C target_entity="Beta-adrenergic receptor kinase 1 (Homo sapiens) (UniProt P25098)" label_value=inactive
compound=O=C(N/N=C\c1cc([N+](=O)[O-])ccc1N1CCOCC1)c1ccccn1 target_entity="Beta-adrenergic receptor kinase 1 (Homo sapiens) (UniProt P25098)" label_value=inactive
compound=COc1ccc(CCn2c(C)nc3c(c(=O)c4ccccc4n3C)c2=O)cc1 target_entity="Beta-adrenergic receptor kinase 1 (Homo sapiens) (UniProt P25098)" label_value=inactive
compound=O=C(/C=C/c1ccc2c(c1)OCO2)NCc1ccc(F)cc1 target_entity="Beta-adrenergic receptor kinase 1 (Homo sapiens) (UniProt P25098)" label_value=inactive
compound=CC(C)(C)n1c(=O)[nH]c2c(c1=O)CCC2 target_entity="Beta-adrenergic receptor kinase 1 (Homo sapiens) (UniProt P25098)" label_value=inactive
compound=Cc1nc(N)nc2c1CCCC2 target_entity="Beta-adrenergic receptor kinase 1 (Homo sapiens) (UniProt P25098)" label_value=inactive

Call for entry CCn1c(C)cc2c(c1=O)C(c1ccccc1)C(C(=O)OC)=C(N)O2 (stereo not given) :
inactive

Per the records of this test, what outcome belongs to Cn1nc(-c2ccc(Cl)cc2)nc2c(=O)n(C)c(=O)nc1-2 ?
active

###

# reported GFP response, % of DMSO; entries follow
assay: TOR pathway CIT2 reporter hit retest – S. cerevisiae, GFP fusion, cherry picks, mother/daughter gates, confirmation (AID 2274); conditions: S. cerevisiae CIT2-GFP strain, flow cytometry, 3 h; measured here: daughter cell gate; at 10 µM; stronger effect = higher value
Form entry: value (%) — number only.

For CC(=O)OCC(=O)[C@@]1(O)CC[C@H]2[C@@H]3CCC4=CC(=O)CC[C@]4(C)[C@H]3[C@@H](O)C[C@@]21C , write its GFP response, % of DMSO.
101

Supply reported GFP response, % of DMSO belonging to this molecule: O=C(/C=C/c1ccccc1)c1ccccc1
106

Kindly indicate its recorded GFP response, % of DMSO. Item: CC(C)(C)c1ccc(C(=O)CC(Sc2ccc(Cl)cc2)C(=O)O)cc1 (stereo unspecified)
79.4

Item O=c1cc(-c2ccccc2)oc2cc(OCc3ccccc3)cc(O)c12 : provide GFP response, % of DMSO
105

###

Overview of reported GFP response vs DMSO across a group of molecules:
test: TOR pathway LAP4-GFP level changes – S. cerevisiae, multiplex flow cytometry, primary screen (AID 1873); details: S. cerevisiae LAP4-GFP expression, 3 h, at 10 µM, stronger effect = higher value
Results filed as inconclusive are left out.
Field format: number, assumed %, no unit text.

molecule=CC(C)Oc1cccc(C(=O)N2CCCC2)c1 reported_measurement=99.9
molecule="COc1ccc2c(c1OC)C(=O)N1C2SC[C@H]1C(=O)NC1CC(C)(C)NC(C)(C)C1 (stereo partly specified)" reported_measurement=84.7
molecule="CCC(C)NCCOCCOc1ccc(Cl)cc1Br (stereo unspecified)" reported_measurement=100
molecule=COc1cc2[nH]c3c(=O)n(CCN4CCOCC4)cnc3c2cc1OC reported_measurement=101
molecule="Cc1ccc(C2CC(=O)C(C=NCCN3CCN(CC(=O)Nc4cc(C)cc(C)c4)CC3)=C(O)C2)cc1 (stereo unspecified)" reported_measurement=108
molecule="OC(CCCN1CCC(O)(c2ccc(Cl)cc2)CC1)c1ccc(F)cc1 (stereo unspecified)" reported_measurement=101

Give me measured GFP response vs DMSO, please, for this molecule: O=C(NC(=S)N1CCCCC1)c1cccnc1
108

Name the recorded GFP response vs DMSO of the item COc1ccc(/C=C2\CC/C(=C\c3ccc(OC)c(OC)c3)C2=O)cc1OC in your answer.
97.2

For the molecule CC(C)N1C(=O)/C(=C\c2nc3ccccc3c(=O)[nH]2)c2ccccc21 , report GFP response vs DMSO.
128

Report GFP response vs DMSO, nothing else, for this molecule: Cc1ccc2nc(C)c3c(c2c1)OC(C(C)(Cl)Br)C3 (stereo unspecified)
105

Specify reported GFP response vs DMSO for the molecule shown: O=C(COc1ccc(F)cc1)OCCN1CCOCC1
93.3
